All figures here come from ChEMBL document CHEMBL5316373.

- TEST: Cmax in mouse at 10 mg/kg, po
- Format: ADME, organism-based
- Set-up: route po
- TEST PARAMETERS: in vivo

[
  {
    "COMPOUND STRUCTURE STRING": "CC(C)(C)[C@H](NC(=O)C(F)(F)F)C(=O)N1C[C@H]2[C@@H]([C@H]1C(=O)N[C@H](C#N)C[C@@H]1CCNC1=O)C2(C)C",
    "Cmax / nM": 2720
  },
  {
    "COMPOUND STRUCTURE STRING": "N#C[C@H](C[C@@H]1CCNC1=O)NC(=O)[C@@H]1[C@H]2CCC[C@H]2CN1C(=O)[C@@H](NC(=O)C(F)(F)F)C1CCCCC1",
    "Cmax / nM": 1160
  },
  {
    "COMPOUND STRUCTURE STRING": "CC(C)(C)NC(=O)C(=O)[C@H](C[C@@H]1CCNC1=O)NC(=O)[C@@H]1[C@H]2CCC[C@H]2CN1C(=O)[C@@H](NC(=O)C(F)(F)F)C1CCCC1",
    "Cmax / nM": 4800
  },
  {
    "COMPOUND STRUCTURE STRING": "CC(C)(C)[C@H](NC(=O)C(F)(F)F)C(=O)N1C[C@@H]2CCC[C@@H]2[C@H]1C(=O)N[C@H](C#N)C[C@@H]1CCNC1=O",
    "Cmax / nM": 790
  },
  {
    "COMPOUND STRUCTURE STRING": "CC(C)(C)NC(=O)C(=O)[C@H](C[C@@H]1CCNC1=O)NC(=O)[C@@H]1[C@H]2CCC[C@H]2CN1C(=O)[C@@H](NC(=O)C(F)(F)F)C1CCCCC1",
    "Cmax / nM": 4810
  }
]
